System: Mycobacterium tuberculosis
PROTOCOL_SUMMARY: Antimycobacterial activity against Mycobacterium bovis BCG at 50 uM by microplate alamar blue assay
Type: functional
STATED_CONDITIONS: variant bovis BCG
Quick rule: inhibition at 50 µM of at least 70% means class 1, below that means class 0.

{"columns": ["COMPOUND", "CLASS_LABEL"],
 "data": [
  ["CCCCCCCCCCCCC#Cc1cn(C2CC(F)C(CO)O2)c(=O)[nH]c1=O (stereo not given)", "class 1"],
  ["O=c1[nH]c(=S)c(Cl)cn1[C@H]1CC[C@@H](CO)O1", "class 0"],
  ["Nc1nc(F)c2ccn([C@H]3CC[C@@H](CO)O3)c2n1", "class 0"],
  ["CCCCCC#Cc1cn([C@H]2C[C@H](F)[C@@H](CO)O2)c(=O)[nH]c1=O", "class 0"],
  ["CCCCCCCCCCC#Cc1cn([C@H]2C[C@H](F)[C@@H](CO)O2)c(=O)[nH]c1=O", "class 1"],
  ["COc1nc(N)nc2c1ncn2[C@H]1CC[C@@H](CO)O1", "class 0"],
  ["CCSc1nc(N)nc2c1ncn2[C@H]1CC[C@@H](CO)O1", "class 1"],
  ["CCCCCCCCCC#Cc1cn([C@H]2CC[C@@H](CO)O2)c(=O)[nH]c1=O", "class 1"],
  ["N#Cc1cn(C2CCC(CO)O2)c2ncnc(N)c12 (stereo not given)", "class 0"],
  ["CCCCCCCCC#Cc1cn([C@H]2CC[C@@H](CO)O2)c(=O)[nH]c1=O", "class 1"],
  ["Nc1nc(N)c2ncn([C@H]3CC[C@@H](CO)O3)c2n1", "class 0"],
  ["O=c1[nH]c(=O)n([C@H]2CC[C@@H](CO)O2)cc1C#Cc1ccccc1", "class 0"],
  ["CCCCCCCCCCCC#Cc1cn([C@H]2CC[C@@H](CO)O2)c(=O)[nH]c1=O", "class 1"],
  ["Cc1cn([C@H]2CC[C@@H](CO)O2)c(=O)nc1N", "class 0"],
  ["CCCCCCCCCCCC#Cc1cn([C@H]2C[C@H](F)[C@@H](CO)O2)c(=O)[nH]c1=O", "class 1"],
  ["CCCCCCCCCCCCC#Cc1cn([C@H]2CC[C@@H](CO)O2)c(=O)[nH]c1=O", "class 1"],
  ["CCCCCCCCC#Cc1cn([C@H]2C[C@H](F)[C@@H](CO)O2)c(=O)[nH]c1=O", "class 1"],
  ["CCCc1ccc(C#Cc2cn([C@H]3C[C@H](F)[C@@H](CO)O3)c(=O)[nH]c2=O)cc1", "class 1"],
  ["NC(=O)c1cn([C@H]2CC[C@@H](CO)O2)c2ncnc(N)c12", "class 0"]
]}
